EXPERIMENTAL_SYSTEM: Sphingosine 1-phosphate receptor 1 (Homo sapiens) (UniProt P21453)
Sequence (P21453 whole entry, looked up): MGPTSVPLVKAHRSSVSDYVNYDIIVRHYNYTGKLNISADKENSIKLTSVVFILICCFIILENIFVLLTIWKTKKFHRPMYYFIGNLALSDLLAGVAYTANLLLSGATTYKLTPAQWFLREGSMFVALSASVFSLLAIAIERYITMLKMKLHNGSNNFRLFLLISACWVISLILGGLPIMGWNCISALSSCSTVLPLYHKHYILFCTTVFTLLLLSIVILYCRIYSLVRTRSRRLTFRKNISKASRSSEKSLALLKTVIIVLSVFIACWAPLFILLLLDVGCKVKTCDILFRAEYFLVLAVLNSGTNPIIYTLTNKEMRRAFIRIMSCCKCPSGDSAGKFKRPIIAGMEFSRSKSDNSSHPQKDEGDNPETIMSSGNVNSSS
ASSAY_REMARKS: S1P1 agonists and agonism potentiators, primary screen, cell-based, primary and confirmation screens, CRE-bla reporter (AID 449);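 further: forskolin at 4 µM as EC80 and the EC20 agonist is SEW2871; 100% = SEW2871 at its EC100 plus forskolin at EC80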
TEST_CONDITIONS: S1P1 CRE-bla cells, forskolin, beta-lactamase FRET, potentiator mode; at 9.5 µM; hits give high values; 100% = saturating reference agonist, 0% = basal; S1P1 agonist co-added at EC20, 2 nM
The campaign covered roughly 56,000 compounds. About 320 (0.57%) were called active. For the sample, actives were picked, then their nearest neighbours and some compounds at random.
Field: activation. Provide a value for each of the compounds that follow.
The reply should contain only the number, in %.

*Q* Any idea what activation was measured for CCOC(=O)C1Cn2c(nc3c(c2=O)C(C)(CC)Cc2ccccc2-3)S1 (stereo not given) ?
*A* -35.4

*Q* Follow-up item: "CCC(CC)c1nnc(NS(=O)(=O)Cc2ccccc2)s1"
*A* -23.9

*Q* Follow-up item: CC1Cc2ccccc2N1C(=O)CSc1nnc(-c2ccc(S(=O)(=O)N3CCCCC3)cc2)o1 (stereo not given)
*A* -18.5

*Q* Follow-up item: "COc1ccc(-n2nnc3c(=O)n(CC(=O)N4CCC(Cc5ccccc5)CC4)cnc32)cc1"
*A* 18.2

*Q* Follow-up item: "Cc1ccc(S(=O)(=O)C2(S(=O)(=O)c3ccc(C)cc3)CCCC2)cc1"
*A* -19.8
